Readings of INHIBITION for the listed molecules
Tested on: Plasmodium berghei
Assay: Screen against P. berghei liver stage (PbLuc), transformed with Luciferase, at 10uM
Format: functional, HepG2
Conditions: tested at 10 uM
Screen size: about 69,000 compounds; about 8,600 (12%) showed an effect of 50% or more. For the sample, strong results were picked, then their nearest neighbours and some compounds at random.
Measurement Type: INHIBITION

| Molecule | Result |
| --- | --- |
| O=C(Cn1ncc2c(c1=O)CCCC2)Nc1cccc2[nH]ccc12 | 30.2% |
| CC(C)c1nccc(CN2CCCC(O)(CN(C)C)C2)n1 (stereo not given) | 7.92% |
| CCNc1cc2c(nn1)CCN(C(=O)c1ccc(CNC(C)=O)o1)C2 | -21.7% |
| CC(C)(CO)Nc1c(NCc2ccncc2)c(=O)c1=O | 32.8% |
| COc1cc2nc3n(c(=O)c2cc1OC)CCN(C(=O)C1CCC1)CC3 | 23.4% |
| Cc1ccsc1CN(C)C(=O)c1cc2c([nH]c1=O)CCCC2=O | -1.95% |
| Cn1cc(CN2CCCC23CCN(C(=O)c2ccncc2)CC3)cn1 | 36.4% |
| Cn1cc(CN2CCC3(CC2)CCN(C(=O)c2cscn2)C3)cn1 | 38.5% |
| CC(C)c1n[nH]c(C2CN(CCCS(C)(=O)=O)CCO2)n1 (stereo not given) | 0.914% |
| CC(C)CN(CCc1ccccc1)Cc1nc2c(cnn2C)c(=O)[nH]1 | 29.2% |
| OC1(CN2CCCC2)CCCN(Cc2cnc(-c3ccco3)nc2)C1 (stereo not given) | 61% |
| CCC=C(C)C(=O)NCc1ccnc(OC2CCOCC2)c1 | 56% |
| CCNc1cc2c(nn1)CCN(C(=O)c1cc(C)no1)C2 | 40% |
| c1ccc(OCC2CC3(CCN(c4ncccn4)CC3)CO2)nc1 (stereo not given) | -34% |
| CC(C)c1nccc(CN2CCCC(O)(CN3CCCC3)C2)n1 (stereo not given) | 62% |
| NC(=O)C1CCN(C(=O)NCCOc2ccc3c(c2)CCC3)CC1 | 5.45% |
| CN(C)CC1(O)CCCN(Cc2cnc(-c3ccco3)nc2)CC1 (stereo not given) | 6.28% |
| COC(=O)CCN(CC1CCOC1)C1CC1 (stereo not given) | 43.9% |
| Cc1cc(F)ccc1CN1CCCC(O)(CN2CCCC2)C1 (stereo not given) | 55% |
| O=C(Cc1cccs1)NCc1ccnc(OC2CCOCC2)c1 | -32.8% |
| Cc1cc(F)ccc1CN1CCC(O)(CN2CCCCC2)C1 (stereo not given) | -10.4% |
| CN(C)C(=O)N1CCC2(CC1)NC(=O)c1ccccc12 | -13.9% |
| CN(C)c1cc2c(nn1)CCN(C(=O)Cc1ccc3c(c1)CCC3)C2 | 5.8% |
| NC(=O)CN(CC1CCOC1)C1CC1 (stereo not given) | 9.16% |
| CCNc1cc2c(nn1)CCN(C(=O)c1cc3nc(C)ccc3o1)C2 | 35.3% |
